procedure_summary: Substrate depletion in in-house rat intestinal microsome pools 1 and 2, combined CYP and UGT cofactors
study_conditions: Han-Wistar, rat, microsomes, pH 7.4, CL int,u, in-house combined cofactors, Pool 2, pool 2, cell marked with footnotes a and b (1 mg/ml and 0.5 mg/ml), 1 μM compound
metric: microsomal CLint at 1 μM (µL/min/mg)
Write the value in µL/min/mg as a bare number.

Asked: Requested field: microsomal CLint at 1 μM. Item: Cc1ncc2n1-c1ccc(Cl)cc1C(c1ccccc1F)=NC2
Given back: 18.2

---

procedure_summary: In vitro-in vivo extrapolation of rat intestinal unbound intrinsic clearance (CL int,u,gut)
Type: in vitro ADME
study_conditions: microsomes
Overview of recorded CL int,u,gut, Mean Han Wistar commercial microsomes for various compounds

- compound: "COc1ccc2c(c1)c(CC(=O)O)c(C)n2C(=O)c1ccc(Cl)cc1"
  reported: "0.22 L/h"
- compound: "O=c1ccc2ccc(O)cc2o1 [7‐Hydroxycoumarin]"
  reported: "0.07 L/h"
- compound: "CCCCC1=NC2(CCCC2)C(=O)N1Cc1ccc(-c2ccccc2-c2nnn[nH]2)cc1"
  reported: "0.03 L/h"
- compound: "CN1CCN(CC(=O)N2c3ccccc3C(=O)Nc3cccnc32)CC1 [Pirenzepine]"
  reported: "3.21 L/h"
- compound: "CCCCc1nc(Cl)c(CO)n1Cc1ccc(-c2ccccc2-c2nn[nH]n2)cc1"
  reported: "0.04 L/h"

Now for another entry.
Asked: Which CL int,u,gut, Mean Han Wistar commercial microsomes is reported for this compound? CC(C)Oc1ccc2c(=O)c(-c3ccccc3)coc2c1
Given back: 0.05 L/h

---

procedure_summary: in vitro
study_conditions: male, Han Wistar, rat, microsomes, pH 7.4, CL int,u, Commercial Han Wistar pool, Combined cofactors
metric: microsomal CLint at 1 μM (µL/min/mg)
I only need the number, in µL/min/mg, no unit after it.

Asked: What does the record list as microsomal CLint at 1 μM for CC(C)Oc1ccc2c(=O)c(-c3ccccc3)coc2c1 [Ipriflavone] ?
Given back: 72

---

procedure_summary: Substrate depletion in commercial Han Wistar rat intestinal microsomes, combined or individual CYP and UGT cofactors
study_conditions: male, Han Wistar, rat, microsomes, pH 7.4, CL int,u, Commercial Han Wistar pool, CYP cofactors, 1 mg/ml, 1 μM compound, CYP cofactors only
metric: microsomal CLint at 1 μM (µL/min/mg)
# number only, unit µL/min/mg dropped from output

Asked: Recorded microsomal CLint at 1 μM for Cc1ncc2n1-c1ccc(Cl)cc1C(c1ccccc1F)=NC2 [Midazolam] , please?
Given back: 18.2

---

procedure_summary: Nonspecific protein binding in rat intestinal microsomes (96-well micro-equilibrium dialysis)
study_conditions: rat intestinal microsomes 1 mg/ml, compound 1 μM
metric: fuinc
The reply should be a number, written without any unit.

- compound: "CCC(C)(C)C(=O)O[C@H]1C[C@@H](C)C=C2C=C[C@H](C)[C@H](CC[C@@H]3C[C@@H](O)CC(=O)O3)[C@H]21 [Simvastatin]"
  reported: 0.93
- compound: "CC(C)NCC(O)COc1ccc(COCCOC(C)C)cc1 (stereo not drawn) [Bisporolol]"
  reported: 0.89

Asked: Value lookup for fuinc; key = Cc1ncc2n1-c1ccc(Cl)cc1C(c1ccccc1F)=NC2 [Midazolam]
Given back: 0.72

Asked: Given the entry CN(C)CCC=C1c2ccccc2CCc2ccccc21 [Amitriptyline] , report its measured fuinc.
Given back: 0.20

Asked: Item under review: C=CC[C@@H]1/C=C(\C)C[C@H](C)C[C@H](OC)[C@H]2O[C@@](O)(C(=O)C(=O)N3CCCC[C@H]3C(=O)O[C@H](/C(C)=C/[C@@H]3CC[C@@H](O)[C@H](OC)C3)[C@H](C)[C@@H](O)CC1=O)[C@H](C)C[C@@H]2OC [Tacrolimus] . Reported fuinc?
Given back: 0.32

Asked: So what's the measured fuinc for this one? COc1ccc2[nH]c([S+]([O-])Cc3ncc(C)c(OC)c3C)nc2c1 (stereo not drawn) [Omeprazole]
Given back: 0.90

---

procedure_summary: in vitro
study_conditions: Han-Wistar, rat, microsomes, pH 7.4, CL int,u, in-house combined cofactors, Pool 2
metric: microsomal CLint at 1 μM (µL/min/mg)
Respond with the bare value in µL/min/mg.

Known results for compounds:
- compound: "CCCc1nn(C)c2c(=O)[nH]c(-c3cc(S(=O)(=O)N4CCN(C)CC4)ccc3OCC)nc12"
  reported: 18.4
- compound: "CC(C)Oc1ccc2c(=O)c(-c3ccccc3)coc2c1"
  reported: 416
- compound: "O=c1ccc2ccc(O)cc2o1 [7‐Hydroxycoumarin]"
  reported: 264

Lab note: next compound to report on.
Asked: Requested field: microsomal CLint at 1 μM. Item: CCCCc1nc(Cl)c(CO)n1Cc1ccc(-c2ccccc2-c2nn[nH]n2)cc1
Given back: 14.8

---

procedure_summary: Nonspecific protein binding in rat intestinal microsomes (96-well micro-equilibrium dialysis)
study_conditions: rat, 4 h, 1 μM, pH 7.4
metric: fuinc
Note: the reply should be a number with no unit written.

- compound: "CN1CCN(CC(=O)N2c3ccccc3C(=O)Nc3cccnc32)CC1 [Pirenzepine]"
  reported: 1.00
- compound: "CC(C)Oc1ccc2c(=O)c(-c3ccccc3)coc2c1"
  reported: 0.28
- compound: "CCCCc1nc(Cl)c(CO)n1Cc1ccc(-c2ccccc2-c2nn[nH]n2)cc1"
  reported: 0.87
- compound: "CCCCNc1cc(C(=O)O)cc(S(N)(=O)=O)c1Oc1ccccc1 [Bumetanide]"
  reported: 0.92
- compound: "O=c1ccc2ccc(O)cc2o1 [7‐Hydroxycoumarin]"
  reported: 1.00

Asked: Endpoint output: fuinc of O=C(c1ccc(OCCN2CCCCC2)cc1)c1c(-c2ccc(O)cc2)sc2cc(O)ccc12 . Value?
Given back: 0.06

Asked: // lookup fuinc for CCCc1nn(C)c2c(=O)[nH]c(-c3cc(S(=O)(=O)N4CCN(C)CC4)ccc3OCC)nc12
Given back: 0.73

---

procedure_summary: in vitro
study_conditions: male, Han Wistar, rat, microsomes, pH 7.4, CL int,u, Commercial Han Wistar pool, UGT cofactors
metric: microsomal CLint at 1 μM
Remember to put the unit after the number in your answer.

Asked: Could you share which microsomal CLint at 1 μM value was measured for CC(C)Oc1ccc2c(=O)c(-c3ccccc3)coc2c1 ?
Given back: 7.3 µL/min/mg

---

procedure_summary: Substrate depletion in in-house rat intestinal microsome pools 1 and 2, combined CYP and UGT cofactors
study_conditions: Han-Wistar, rat, rat intestinal microsomes, in-house pool 2, pH 7.4, CL int,u, in-house combined cofactors, Pool 2, pool 2, incubated at 0.5 mg/ml (footnote b), 1 μM compound
metric: microsomal CLint at 1 μM (µL/min/mg)
Quick note: give the figure in µL/min/mg, leave out the unit.

Asked: microsomal CLint at 1 μM for C=CC[C@@H]1/C=C(\C)C[C@H](C)C[C@H](OC)[C@H]2O[C@@](O)(C(=O)C(=O)N3CCCC[C@H]3C(=O)O[C@H](/C(C)=C/[C@@H]3CC[C@@H](O)[C@H](OC)C3)[C@H](C)[C@@H](O)CC1=O)[C@H](C)C[C@@H]2OC ?
Given back: 413

---

procedure_summary: Substrate depletion in commercial Han Wistar rat intestinal microsomes, combined or individual CYP and UGT cofactors
study_conditions: commercial Han Wistar microsomes, individual cofactors
metric: Main route of elimination (CYP vs UGT cofactors)

- compound: "O=c1ccc2ccc(O)cc2o1 [7‐Hydroxycoumarin]"
  reported: "glucuronidation"
- compound: "CCCCc1nc(Cl)c(CO)n1Cc1ccc(-c2ccccc2-c2nn[nH]n2)cc1"
  reported: "glucuronidation"
- compound: "CCCCC1=NC2(CCCC2)C(=O)N1Cc1ccc(-c2ccccc2-c2nnn[nH]2)cc1"
  reported: "glucuronidation"

---

procedure_summary: Substrate depletion in in-house rat intestinal microsome pools 1 and 2, combined CYP and UGT cofactors
study_conditions: Han-Wistar, rat, rat intestinal microsomes, in-house pool 2, pH 7.4, CL int,u, in-house combined cofactors, Pool 2, pool 2, 1 mg/ml, 1 μM compound, CYP and UGT cofactors
metric: microsomal CLint at 1 μM

Asked: Name the reported microsomal CLint at 1 μM value associated with the molecule CN(C)CCC=C1c2ccccc2CCc2ccccc21
Given back: 19.9 µL/min/mg

---

procedure_summary: in vitro
study_conditions: Han-Wistar, rat, microsomes, pH 7.4, CL int,u, in-house combined cofactors, Pool 2
metric: microsomal CLint at 1 μM

Example entries and their recorded answers appear below.
- compound: "COc1ccc2c(c1)c(CC(=O)O)c(C)n2C(=O)c1ccc(Cl)cc1 [Indomethacin]"
  reported: "62.4 µL/min/mg"
- compound: "COc1ccc([C@@H]2Sc3ccccc3N(CCN(C)C)C(=O)[C@@H]2OC(C)=O)cc1 [Diltiazem]"
  reported: "26.7 µL/min/mg"
- compound: "CCCCC1=NC2(CCCC2)C(=O)N1Cc1ccc(-c2ccccc2-c2nnn[nH]2)cc1 [Irbesartan]"
  reported: "35.9 µL/min/mg"

Okay, now this compound:
Asked: Endpoint output: microsomal CLint at 1 μM of CN1CCN(CC(=O)N2c3ccccc3C(=O)Nc3cccnc32)CC1 [Pirenzepine] . Value?
Given back: 2.7 µL/min/mg
